- System: T cells isolated from mouse spleens
- Measurement notes: T cell proliferation inhibition (CFSE flow cytometry, anti-CD3/anti-CD28 activation)
- Format: cell-based, C57BL/6 mice
- Test parameters: 100 nM, mouse spleen T cells, CD3/CD28 activated, cultured three days
Recorded Proliferation inhibition rate (%) for the following compounds

{"Compound": "Cl.Nc1ncccc1C(=O)NCCCCCCCCCCCCN1CC[C@H](N)C1 [Compound 50]", "System under test": "T cells isolated from mouse spleens", "Proliferation inhibition rate (%)": 100.00}
{"Compound": "Nc1ncccc1C(=O)NCCCCCCCCCCCCN1CCN(CCO)CC1 [Compound 54]", "System under test": "T cells isolated from mouse spleens", "Proliferation inhibition rate (%)": 100.00}
{"Compound": "Cc1ccc(C2CCN(CCCCCCCCCCCCNC(=O)c3cccnc3N)CC2)cc1 [Compound 55]", "System under test": "T cells isolated from mouse spleens", "Proliferation inhibition rate (%)": 100.00}
